Biological target: T1, Recombinant Human DLL4 (delta-like protein 4) (human, UniProt Q9NR61 27-524)
T1 construct: also called rHuman DLL4
Experiment: ELISA, plate-coated DLL4, Fab 25 nM
Listed below: ELISA signal at 25 nM Fab values for each entry.

Fab VH1-46_IGHD6-6*01_IGHJ1*01 S102A/S103P/S104F/H111F (APFF) & L6_IGKJ1*01 S28N/S30D/S31H S52T (Fab, V domains shown, Fab made in E. coli: VH in plasmid A (CH1, His6 and Flag tags), VL in plasmid C (kappa CL); also called H:APFF & L:NDH S52T; APFF / NDH/S52T) VH: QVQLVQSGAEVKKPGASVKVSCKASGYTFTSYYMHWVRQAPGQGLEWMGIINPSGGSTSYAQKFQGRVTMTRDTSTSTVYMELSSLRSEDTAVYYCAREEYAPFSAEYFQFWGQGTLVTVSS VL: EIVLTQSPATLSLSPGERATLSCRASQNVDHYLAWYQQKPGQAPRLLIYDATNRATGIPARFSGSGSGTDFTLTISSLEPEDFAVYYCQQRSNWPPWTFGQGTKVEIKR	0.323

Q: Would you mind telling me what ELISA signal at 25 nM Fab value was observed for Fab VH1-46_IGHD6-6*01_IGHJ1*01 S102A/S103P/S104F/H111F (APFF) & L6_IGKJ1*01 S28N/S30D/S31H N53H (Fab, V domains shown, Fab made in E. coli: VH in plasmid A (CH1, His6 and Flag tags), VL in plasmid C (kappa CL); also called H:APFF & L:NDH N53H; APFF / NDH/N53H) VH: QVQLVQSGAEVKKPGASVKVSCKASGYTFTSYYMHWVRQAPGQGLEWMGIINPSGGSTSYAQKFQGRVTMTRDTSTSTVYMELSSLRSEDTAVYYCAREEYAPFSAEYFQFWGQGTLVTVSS VL: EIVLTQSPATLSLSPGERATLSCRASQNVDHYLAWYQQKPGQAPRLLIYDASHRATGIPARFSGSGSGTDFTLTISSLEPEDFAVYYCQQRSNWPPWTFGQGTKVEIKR ?
Result: 0.238

Q: Then this binder: Fab VH1-46_IGHD6-6*01_IGHJ1*01 S102A/S103P/S104F/H111F (APFF) & L6_IGKJ1*01 S28N/S30D/S31H A55G (Fab, V domains shown, Fab made in E. coli: VH in plasmid A (CH1, His6 and Flag tags), VL in plasmid C (kappa CL); also called H:APFF & L:NDH A55G; APFF / NDH/A55G) VH: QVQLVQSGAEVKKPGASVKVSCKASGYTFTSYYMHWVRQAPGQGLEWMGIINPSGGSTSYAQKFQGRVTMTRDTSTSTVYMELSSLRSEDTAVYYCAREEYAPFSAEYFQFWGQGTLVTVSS VL: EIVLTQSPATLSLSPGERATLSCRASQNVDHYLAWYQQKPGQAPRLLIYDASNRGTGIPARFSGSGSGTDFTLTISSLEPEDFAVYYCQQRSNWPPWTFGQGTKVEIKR
Result: 0.316

Q: Then this binder: Fab VH1-46_IGHD6-6*01_IGHJ1*01 S102A/S103P/S104F/H111F (APFF) & L6_IGKJ1*01 S28N/S30D/S31H A55S (Fab, V domains shown, Fab made in E. coli: VH in plasmid A (CH1, His6 and Flag tags), VL in plasmid C (kappa CL); also called H:APFF & L:NDH A55S; APFF / NDH/A55S) VH: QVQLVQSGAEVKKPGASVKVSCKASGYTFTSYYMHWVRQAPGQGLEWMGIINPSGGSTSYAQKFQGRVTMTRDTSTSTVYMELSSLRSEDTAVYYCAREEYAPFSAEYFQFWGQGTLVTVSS VL: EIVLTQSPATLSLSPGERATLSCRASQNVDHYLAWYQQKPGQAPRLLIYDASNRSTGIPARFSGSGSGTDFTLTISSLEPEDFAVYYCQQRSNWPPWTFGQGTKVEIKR
Result: 0.407

Q: Then this binder: Fab VH1-46_IGHD6-6*01_IGHJ1*01 S102A/S103P/S104F/H111F (APFF) & L6_IGKJ1*01 S28N/S30D/S31H S52L (Fab, V domains shown, Fab made in E. coli: VH in plasmid A (CH1, His6 and Flag tags), VL in plasmid C (kappa CL); also called H:APFF & L:NDH S52L; APFF / NDH/S52L) VH: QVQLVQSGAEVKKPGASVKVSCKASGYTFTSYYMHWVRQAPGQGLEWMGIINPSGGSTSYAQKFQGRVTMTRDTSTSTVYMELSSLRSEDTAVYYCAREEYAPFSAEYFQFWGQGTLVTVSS VL: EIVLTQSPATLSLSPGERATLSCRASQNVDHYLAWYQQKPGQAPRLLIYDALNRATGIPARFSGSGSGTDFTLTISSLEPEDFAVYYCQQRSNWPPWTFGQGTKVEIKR
Result: 0.335

Q: Then this binder: Fab VH1-46_IGHD6-6*01_IGHJ1*01 S102A/S103P/S104F/H111F (APFF) & L6_IGKJ1*01 S28N/S30D/S31H (NDH) (Fab, V domains shown, Fab made in E. coli: VH in plasmid A (CH1, His6 and Flag tags), VL in plasmid C (kappa CL); also called H:APFF & L:NDH; APFF / NDH) VH: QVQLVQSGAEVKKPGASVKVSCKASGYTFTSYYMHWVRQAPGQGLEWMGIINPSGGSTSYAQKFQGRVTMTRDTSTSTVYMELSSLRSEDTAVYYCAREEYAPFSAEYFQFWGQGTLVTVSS VL: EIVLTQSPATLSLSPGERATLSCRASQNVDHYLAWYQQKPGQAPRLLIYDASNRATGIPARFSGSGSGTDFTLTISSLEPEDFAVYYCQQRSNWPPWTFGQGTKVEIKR
Result: 0.31
